- Measured on: Orexin/Hypocretin receptor type 1 (Homo sapiens)
- Sequence (O43613 whole entry): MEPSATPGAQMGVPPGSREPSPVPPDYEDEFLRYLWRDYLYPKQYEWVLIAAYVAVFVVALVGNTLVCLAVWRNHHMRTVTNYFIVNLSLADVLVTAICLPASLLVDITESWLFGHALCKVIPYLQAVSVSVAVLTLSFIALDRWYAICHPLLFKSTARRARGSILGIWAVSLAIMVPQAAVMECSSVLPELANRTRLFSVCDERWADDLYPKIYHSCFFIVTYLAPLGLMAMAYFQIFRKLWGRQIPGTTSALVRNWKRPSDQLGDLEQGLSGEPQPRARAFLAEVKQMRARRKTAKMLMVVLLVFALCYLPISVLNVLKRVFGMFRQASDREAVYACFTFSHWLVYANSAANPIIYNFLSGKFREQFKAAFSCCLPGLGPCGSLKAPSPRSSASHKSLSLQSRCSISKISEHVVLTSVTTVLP
- Assay text: Agonist activity at human OX1 receptor overexpressed in CHO-RD-HGA16 cells assessed as calcium mobilization after 15 mins by fluorescence assay
Where a SMILES comes first, the peptide text is derived from it.
Observation type: pEC50
Note: pEC50 values are expressed as the negative base-10 logarithm of concentration in M.

Documented pEC50 of `CC[C@H](C)[C@H](NC(=O)CNC(=O)[C@H](C)NC(=O)[C@H](C)NC(=O)[C@H](Cc1cnc[nH]1)NC(=O)[C@H](CC(N)=O)NC(=O)CNC(=O)[C@@H](C)NC(=O)CNC(=O)[C@H](Cc1cnc[nH]1)NC(=O)[C@H](CC(C)C)NC(=O)[C@H](CC(C)C)NC(=O)[C@H](CCC(=O)O)NC(=O)[C@@H](N)Cc1ccc(O)cc1)C(=O)N[C@@H](CC(C)C)C(=O)N[C@H](C(=O)N[C@@H](CC(C)C)C(N)=O)[C@@H](C)O` : 5.51

Documented pEC50 of CC[C@H](C)[C@H](NC(=O)CNC(=O)[C@H](C)NC(=O)[C@H](C)NC(=O)[C@H](Cc1cnc[nH]1)NC(=O)[C@H](CC(N)=O)NC(=O)CNC(=O)[C@H](C)NC(=O)[C@H](C)NC(=O)[C@H](Cc1cnc[nH]1)NC(=O)[C@H](CC(C)C)NC(=O)[C@H](CC(C)C)NC(=O)[C@H](CCC(=O)O)NC(=O)[C@@H](N)Cc1ccc(O)cc1)C(=O)N[C@@H](CC(C)C)C(=O)N[C@H](C(=O)N[C@@H](CC(C)C)C(N)=O)[C@@H](C)O (H-YELLHAAGNHAAGILTL-NH2) : 6.37

New cases:
Documented pEC50 of CC[C@H](C)[C@H](NC(=O)CNC(=O)[C@H](C)NC(=O)[C@H](C)NC(=O)[C@H](Cc1cnc[nH]1)NC(=O)[C@H](CC(N)=O)NC(=O)CNC(=O)[C@H](C)NC(=O)CNC(=O)[C@H](Cc1cnc[nH]1)NC(=O)[C@H](CC(C)C)NC(=O)[C@H](CC(C)C)NC(=O)[C@H](C)NC(=O)[C@@H](N)Cc1ccc(O)cc1)C(=O)N[C@@H](CC(C)C)C(=O)N[C@H](C(=O)N[C@@H](CC(C)C)C(N)=O)[C@@H](C)O (H-YALLHGAGNHAAGILTL-NH2) : 7.10
